tested on: SIV-specific CD8+ T cell responses; experiment: IFNγ ELISPOT of epitope-specific CD8+ T cell responses in DNA-immunized / SIV-infected macaques; assay type: in vivo, rhesus macaques; settings: Group A monkeys, ELISPOT after 1st-4th DNA immunization
Measured metric: CD8+ T cell response against peptide after DNA immunization

>  <Item sequence>
TVPWPNASL [Env622-630TL9]

>  <Value reported>
Significant responses

$$$$
>  <Item sequence>
CAPPGYALL [Env235-243CL9]

>  <Value reported>
Significant responses

$$$$
>  <Item sequence>
STPESANL [Tat28-35SL8]

>  <Value reported>
Significant responses

$$$$
>  <Item sequence>
LAPVPIPFA [Gag372-380LA9]

>  <Value reported>
Significant responses

$$$$
>  <Item sequence>
QVPSLQYLA [Vifl44-152QA9]

>  <Value reported>
Significant responses

$$$$
>  <Item sequence>
CTPYDINQM [Gag181-189CM9]

>  <Value reported>
Significant responses

$$$$
>  <Item sequence>
GSPAIFQYTM [Pol359-365GM10]

>  <Value reported>
Significant responses

$$$$

Value source: patent US20030124718A1
